- Assay target: human CCR8 (human, UniProt P51685 1-355)
- Method: cell-based or functional assay
Measure: residual hCCL1 (100 nM) Gi2 response, protocol #3, mAb 0.5 µg/mL (%)
Report only the number, with the unit % understood.

Binder	Measurement
anti-CCR8 mAb 1-13 (antibody, V domains shown, Murine hybridoma mAb) VH: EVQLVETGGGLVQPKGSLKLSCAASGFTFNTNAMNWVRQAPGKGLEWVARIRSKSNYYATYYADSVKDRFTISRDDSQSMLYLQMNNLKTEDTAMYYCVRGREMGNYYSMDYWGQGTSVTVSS VL: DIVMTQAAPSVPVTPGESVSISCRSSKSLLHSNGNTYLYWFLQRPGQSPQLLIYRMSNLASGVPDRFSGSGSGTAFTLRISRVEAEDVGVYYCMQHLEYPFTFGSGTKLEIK	39
anti-CCR8 mAb 1-11 (antibody, V domains shown, Murine hybridoma mAb) VH: QVQLQQPGAELVKPGASVKMSCKATGYTFTGYNMHWVKQTPGQGLEWIGAISPGKGDTSYNLKFKGKATLTTDKSSSTAYMQLSSLTSADSAVYYCARSGGTPFAYWGQGTLVTVSA VL: DVVMTQTPLSLPVSLGDQASISCRSSQSLVHSNGDTYLYWYLQKPGQSPKLLIYKVSNRFSGVPDRFSGSGSGTDFTLKINRVEAEDLGVYFCSQSTHVPYTFGGGTKLEIK	98

As a next step, examine the binder that follows.
-- ask Quick one: residual hCCL1 (100 nM) Gi2 response, protocol #3, mAb 0.5 µg/mL of anti-CCR8 mAb 1-15 (antibody, V domains shown, Murine hybridoma mAb) VH: EVQLQQSGPELVKPGASVKISCKTSGYTFTEYTMHWVKQSHGKSLEWIGGINPNNGDTNYNQKFMGKATLTVDKSSSTAYMELRSLTSEDSAVYYCVRRLLRRGAMDYWGQGTSVTVSS VL: DIVLTQSPASLAVSLGQRATISCRASENVEYYGTSLMQWFQQKPGQPPKLLIYAASNVDSGVPARFSGSGSGTDFSLNIHPVEEDDIAMYFCQQSRKVPWTFGGGTKLDIK ?
-- reply 97

Just for reference, patent US20260132208A1 is where these values come from.
